A collection of compounds and their measured relative viability
# Tested on: A549
# assay method text: relative viability (nuclei count vs DMSO), 5 days (fraction); higher = more cells survive
# condition description: first compound 0.4 µM
Form: value (number only, do not type unit).

Recorded relative viability, per entry:
compound	relative viability
C[C@@H]1CN(CC(=O)Nc2ccc3c(c2)Cc2cccc(-c4cc(=O)cc(N5CCOCC5)o4)c2S3)C[C@H](C)O1 + C[C@]1(O)C[C@@H](c2nc(-c3ccc4ccc(-c5ccccc5)nc4c3)c3c(N)nccn32)C1 [Linsitinib] (partner 1 µM)	0.58
COc1cc(N2CCC(C(N)=O)CC2)ccc1Nc1nc(N)c(Cl)c(Nc2ccccc2S(=O)(=O)C(C)C)n1 [HG-5-88-01] + C[C@@H](Oc1cc(-c2cnn(C3CCNCC3)c2)cnc1N)c1c(Cl)ccc(F)c1Cl [Crizotinib] (partner 1 µM)	0.699
C[C@@H]1CN(CC(=O)Nc2ccc3c(c2)Cc2cccc(-c4cc(=O)cc(N5CCOCC5)o4)c2S3)C[C@H](C)O1 + COc1cc2c(Oc3ccc(NC(=O)C4(C(=O)Nc5ccc(F)cc5)CC4)cc3F)ccnc2cc1OCCCN1CCOCC1 [Foretinib] (partner 0.25 µM)	0.895
COc1cc(N2CCC(C(N)=O)CC2)ccc1Nc1nc(N)c(Cl)c(Nc2ccccc2S(=O)(=O)C(C)C)n1 [HG-5-88-01] + C[C@]1(O)C[C@@H](c2nc(-c3ccc4ccc(-c5ccccc5)nc4c3)c3c(N)nccn32)C1 [Linsitinib] (partner 1 µM)	0.634
Clc1ccc(Nc2nnc(Cc3ccncc3)c3ccccc23)cc1 [Vatalanib] + C[C@@H](Oc1cc(-c2cnn(C3CCNCC3)c2)cnc1N)c1c(Cl)ccc(F)c1Cl [Crizotinib] (partner 1 µM)	0.907

## Input Give its relative viability value. Item: COc1cc(N2CCC(C(N)=O)CC2)ccc1Nc1nc(N)c(Cl)c(Nc2ccccc2S(=O)(=O)C(C)C)n1 [HG-5-88-01] + Cc1nc(NC(=O)N2CCC[C@H]2C(N)=O)sc1-c1ccnc(C(C)(C)C(F)(F)F)c1 [Alpelisib] (partner 2 µM)
## Output 0.698

====

Reported values of relative viability for individual entries
# Test system: NCI-H596
# assay method text: relative viability (nuclei count vs DMSO), 5 days (fraction); higher = more cells survive
# condition description: first compound 8 µM
No unit in the answer, please; the number alone is enough.

compound	test readout	result value
CCCCCCCCCCCC1=C(O)C(=O)C=C(O)C1=O [Embelin] + CCNC(=O)c1noc(-c2cc(C(C)C)c(O)cc2O)c1-c1ccc(CN2CCOCC2)cc1 [Luminespib] (partner 0.01 µM)	relative viability	0.904

Let's switch to this compound now.
## Input Sample CCCCCCCCCCCC1=C(O)C(=O)C=C(O)C1=O [Embelin] + CC1(C)CCC(c2ccc(Cl)cc2)=C(CN2CCN(c3ccc(C(=O)NS(=O)(=O)c4ccc(N[C@H](CCN5CCOCC5)CSc5ccccc5)c(S(=O)(=O)C(F)(F)F)c4)cc3)CC2)C1 [Navitoclax] (partner 0.5 µM) — what was its relative viability?
## Output 0.908

====

Form field: relative viability (one value per entry).
# Tested on: NCI-H2009
# assay method text: relative viability (nuclei count vs DMSO), 5 days (fraction); higher = more cells survive
# condition description: first compound 0.08 µM
The answer should be written as a number, with no unit following it.

# count of solved cases: 2
compound	result value
CCCCCCCCCCCC1=C(O)C(=O)C=C(O)C1=O [Embelin] + Cc1nc(Nc2ncc(C(=O)Nc3c(C)cccc3Cl)s2)cc(N2CCN(CCO)CC2)n1 [Dasatinib] (partner 0.075 µM)	0.342
CCCCCCCCCCCC1=C(O)C(=O)C=C(O)C1=O [Embelin] + CC(=O)c1c(C)c2cnc(Nc3ccc(N4CCNCC4)cn3)nc2n(C2CCCC2)c1=O [Palbociclib] (partner 0.5 µM)	0.223

Now look at this one.
## Input Find the recorded relative viability belonging to CCCCCCCCCCCC1=C(O)C(=O)C=C(O)C1=O [Embelin] + C[C@@H](Oc1cc(-c2cnn(C3CCNCC3)c2)cnc1N)c1c(Cl)ccc(F)c1Cl [Crizotinib] (partner 1 µM) and report it.
## Output 1.04

====

# Test system: NCI-H1651
# assay method text: relative viability (nuclei count vs DMSO), 5 days (fraction); higher = more cells survive
# condition description: first compound 0.04 µM
test readout: relative viability
Hey, just send me the number, nothing else.

Solved entries:
compound	relative viability
Clc1ccc(Nc2nnc(Cc3ccncc3)c3ccccc23)cc1 [Vatalanib] + NC(=O)Nc1cc(-c2cccc(F)c2)sc1C(=O)N[C@H]1CCCNC1 [AZD7762] (partner 0.2 µM)	0.441
COc1cc(N2CCC(C(N)=O)CC2)ccc1Nc1nc(N)c(Cl)c(Nc2ccccc2S(=O)(=O)C(C)C)n1 [HG-5-88-01] + Cc1cc(Nc2cc(N3CCN(C)CC3)nc(Sc3ccc(NC(=O)C4CC4)cc3)n2)n[nH]1 [Tozasertib] (partner 0.1 µM)	0.71
COc1cc(N2CCC(C(N)=O)CC2)ccc1Nc1nc(N)c(Cl)c(Nc2ccccc2S(=O)(=O)C(C)C)n1 [HG-5-88-01] + O=C(c1cc(Cc2n[nH]c(=O)c3ccccc23)ccc1F)N1CCN(C(=O)C2CC2)CC1 [Olaparib] (partner 8 µM)	0.189

Now take the following compound into account.
## Input Look up relative viability for this compound: Clc1ccc(Nc2nnc(Cc3ccncc3)c3ccccc23)cc1 [Vatalanib] + CC(=O)c1c(C)c2cnc(Nc3ccc(N4CCNCC4)cn3)nc2n(C2CCCC2)c1=O [Palbociclib] (partner 0.5 µM)
## Output 0.51

====

# Test system: HCC-827
# assay method text: relative viability (nuclei count vs DMSO), 5 days (fraction); higher = more cells survive
# condition description: first compound 0.04 µM
test readout: relative viability
The reply should be a number, written without any unit.

molecule	study target	result value
Clc1ccc(Nc2nnc(Cc3ccncc3)c3ccccc23)cc1 [Vatalanib] + Nc1nc2[nH]cc(CCc3ccc(C(=O)N[C@@H](CCC(=O)O)C(=O)O)cc3)c2c(=O)[nH]1 [Pemetrexed] (partner 0.2 µM)	HCC-827	0.241

Lab note: next molecule to report on.
## Input Which relative viability value is on record for COc1cc(N2CCC(C(N)=O)CC2)ccc1Nc1nc(N)c(Cl)c(Nc2ccccc2S(=O)(=O)C(C)C)n1 [HG-5-88-01] + Nc1ncn([C@H]2C[C@H](O)[C@@H](CO)O2)c(=O)n1 [Decitabine] (partner 2 µM) ?
## Output 0.292

====

# Tested on: NCI-H2087
# assay method text: relative viability (nuclei count vs DMSO), 5 days (fraction); higher = more cells survive
# condition description: first compound 1.265 µM
test readout: relative viability
Give the figure by itself; no unit, no explanation.

Recorded relative viability, per entry:
compound	relative viability
Clc1ccc(Nc2nnc(Cc3ccncc3)c3ccccc23)cc1 [Vatalanib] + CC(C)C[C@H](NC(=O)[C@H](Cc1ccccc1)NC(=O)c1cnccn1)B(O)O [Bortezomib] (partner 0.002 µM)	0.917
COc1cc(N2CCC(C(N)=O)CC2)ccc1Nc1nc(N)c(Cl)c(Nc2ccccc2S(=O)(=O)C(C)C)n1 [HG-5-88-01] + Nc1ncn([C@H]2C[C@H](O)[C@@H](CO)O2)c(=O)n1 [Decitabine] (partner 2 µM)	0.246
Clc1ccc(Nc2nnc(Cc3ccncc3)c3ccccc23)cc1 [Vatalanib] + Nc1nc2[nH]cc(CCc3ccc(C(=O)N[C@@H](CCC(=O)O)C(=O)O)cc3)c2c(=O)[nH]1 [Pemetrexed] (partner 0.2 µM)	0.64

API: the following record is the query input.
## Input For the compound Clc1ccc(Nc2nnc(Cc3ccncc3)c3ccccc23)cc1 [Vatalanib] + COc1cc2c(Oc3ccc(NC(=O)C4(C(=O)Nc5ccc(F)cc5)CC4)cc3F)ccnc2cc1OCCCN1CCOCC1 [Foretinib] (partner 0.25 µM) , what relative viability is on record?
## Output 0.958

====

List of relative viability values.
# Test system: Calu-6
# assay method text: relative viability (nuclei count vs DMSO), 5 days (fraction); higher = more cells survive
# condition description: first compound 0.1265 µM
Could you keep your reply to the number by itself?

Answered examples (4):
molecule	study target	test readout	result value
Clc1ccc(Nc2nnc(Cc3ccncc3)c3ccccc23)cc1 [Vatalanib] + Cc1nc(NC(=O)N2CCC[C@H]2C(N)=O)sc1-c1ccnc(C(C)(C)C(F)(F)F)c1 [Alpelisib] (partner 2 µM)	Calu-6	relative viability	0.95
C[C@@H]1CN(CC(=O)Nc2ccc3c(c2)Cc2cccc(-c4cc(=O)cc(N5CCOCC5)o4)c2S3)C[C@H](C)O1 + COc1cc2c(Oc3ccc(NC(=O)C4(C(=O)Nc5ccc(F)cc5)CC4)cc3F)ccnc2cc1OCCCN1CCOCC1 [Foretinib] (partner 0.25 µM)	Calu-6	relative viability	0.841
COc1cc(N2CCC(C(N)=O)CC2)ccc1Nc1nc(N)c(Cl)c(Nc2ccccc2S(=O)(=O)C(C)C)n1 [HG-5-88-01] + CC(C)C[C@H](NC(=O)[C@H](Cc1ccccc1)NC(=O)c1cnccn1)B(O)O [Bortezomib] (partner 0.002 µM)	Calu-6	relative viability	0.998
Clc1ccc(Nc2nnc(Cc3ccncc3)c3ccccc23)cc1 [Vatalanib] + CS(=O)(=O)CCNCc1ccc(-c2ccc3ncnc(Nc4ccc(OCc5cccc(F)c5)c(Cl)c4)c3c2)o1 [Lapatinib] (partner 2 µM)	Calu-6	relative viability	1.02

Could you now look at the following molecule, please?
## Input Give its relative viability value. Item: Clc1ccc(Nc2nnc(Cc3ccncc3)c3ccccc23)cc1 [Vatalanib] + O=C(c1cc(Cc2n[nH]c(=O)c3ccccc23)ccc1F)N1CCN(C(=O)C2CC2)CC1 [Olaparib] (partner 8 µM)
## Output 0.567

Where do these numbers come from? They come from the supplement of paper PMC10307832.
